Every entry's value here was drawn from ChEMBL document CHEMBL3217613.

# Target Under Test: Nuclear factor NF-kappa-B complex (Homo sapiens) (UniProt Q00653+P19838+Q04206)
# Sequence (P19838 whole entry, looked up): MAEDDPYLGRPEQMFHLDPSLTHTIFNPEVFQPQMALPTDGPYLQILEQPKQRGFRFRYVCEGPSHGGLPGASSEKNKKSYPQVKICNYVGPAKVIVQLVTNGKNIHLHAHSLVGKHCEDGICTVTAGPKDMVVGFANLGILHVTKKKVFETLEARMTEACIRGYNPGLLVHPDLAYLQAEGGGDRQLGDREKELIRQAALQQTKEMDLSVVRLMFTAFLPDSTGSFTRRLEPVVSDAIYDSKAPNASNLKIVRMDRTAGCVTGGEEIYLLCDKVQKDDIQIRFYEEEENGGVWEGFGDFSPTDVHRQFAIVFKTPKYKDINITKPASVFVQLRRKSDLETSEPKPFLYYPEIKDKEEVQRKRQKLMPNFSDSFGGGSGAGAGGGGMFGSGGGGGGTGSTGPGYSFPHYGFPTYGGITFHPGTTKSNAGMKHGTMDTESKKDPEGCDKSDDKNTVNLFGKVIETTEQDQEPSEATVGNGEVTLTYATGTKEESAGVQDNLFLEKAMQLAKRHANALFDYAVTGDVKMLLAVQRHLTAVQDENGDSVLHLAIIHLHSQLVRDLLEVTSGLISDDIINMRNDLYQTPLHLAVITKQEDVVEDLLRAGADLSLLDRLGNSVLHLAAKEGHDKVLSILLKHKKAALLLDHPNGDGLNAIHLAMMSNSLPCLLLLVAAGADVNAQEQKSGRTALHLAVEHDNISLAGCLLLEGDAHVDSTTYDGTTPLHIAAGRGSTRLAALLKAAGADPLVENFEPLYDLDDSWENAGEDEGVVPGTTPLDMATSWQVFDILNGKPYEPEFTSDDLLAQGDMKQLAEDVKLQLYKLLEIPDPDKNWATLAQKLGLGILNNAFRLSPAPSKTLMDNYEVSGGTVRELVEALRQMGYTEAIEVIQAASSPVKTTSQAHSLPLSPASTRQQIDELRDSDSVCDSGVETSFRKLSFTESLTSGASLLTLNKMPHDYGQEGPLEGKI
# Sequence (Q00653 whole entry, looked up): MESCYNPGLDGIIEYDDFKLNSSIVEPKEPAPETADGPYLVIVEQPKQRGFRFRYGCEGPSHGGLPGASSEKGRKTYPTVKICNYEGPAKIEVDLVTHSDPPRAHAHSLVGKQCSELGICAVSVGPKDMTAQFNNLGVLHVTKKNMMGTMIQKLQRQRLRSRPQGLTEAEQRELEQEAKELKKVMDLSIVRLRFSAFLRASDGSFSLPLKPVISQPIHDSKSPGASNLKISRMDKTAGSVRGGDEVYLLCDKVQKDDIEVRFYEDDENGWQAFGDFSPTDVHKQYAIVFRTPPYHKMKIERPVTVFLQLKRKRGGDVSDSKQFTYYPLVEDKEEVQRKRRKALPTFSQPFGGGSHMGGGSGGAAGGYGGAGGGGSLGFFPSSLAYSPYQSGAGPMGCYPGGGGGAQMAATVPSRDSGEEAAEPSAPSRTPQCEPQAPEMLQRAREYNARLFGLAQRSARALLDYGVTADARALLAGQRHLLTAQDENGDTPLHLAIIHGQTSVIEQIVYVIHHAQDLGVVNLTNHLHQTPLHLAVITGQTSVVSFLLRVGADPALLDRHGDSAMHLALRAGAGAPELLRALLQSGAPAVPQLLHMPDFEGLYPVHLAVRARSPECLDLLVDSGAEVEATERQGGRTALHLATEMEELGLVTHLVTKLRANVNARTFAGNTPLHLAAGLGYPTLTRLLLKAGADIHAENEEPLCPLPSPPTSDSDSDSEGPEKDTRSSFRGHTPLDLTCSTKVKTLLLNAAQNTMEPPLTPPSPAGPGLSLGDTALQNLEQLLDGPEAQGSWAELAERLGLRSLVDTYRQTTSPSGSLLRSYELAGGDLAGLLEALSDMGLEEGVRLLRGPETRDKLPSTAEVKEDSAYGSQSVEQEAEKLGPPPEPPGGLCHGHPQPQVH
# Sequence (Q04206 whole entry, looked up): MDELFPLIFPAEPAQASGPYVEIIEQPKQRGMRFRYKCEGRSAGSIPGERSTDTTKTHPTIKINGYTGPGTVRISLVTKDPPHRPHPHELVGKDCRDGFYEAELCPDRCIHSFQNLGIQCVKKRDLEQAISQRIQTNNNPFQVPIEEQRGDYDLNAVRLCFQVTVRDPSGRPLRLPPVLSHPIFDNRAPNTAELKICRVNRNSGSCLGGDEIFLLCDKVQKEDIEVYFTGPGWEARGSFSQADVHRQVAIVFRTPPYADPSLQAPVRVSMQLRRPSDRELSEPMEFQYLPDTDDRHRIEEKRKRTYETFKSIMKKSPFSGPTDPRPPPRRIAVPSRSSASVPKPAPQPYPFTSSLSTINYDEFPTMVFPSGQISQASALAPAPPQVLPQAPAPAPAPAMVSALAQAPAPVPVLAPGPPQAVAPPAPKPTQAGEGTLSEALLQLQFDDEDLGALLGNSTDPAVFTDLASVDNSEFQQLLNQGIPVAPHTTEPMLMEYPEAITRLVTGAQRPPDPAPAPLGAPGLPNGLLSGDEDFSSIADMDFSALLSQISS
# Assay Procedure: Inhibition of NFkappaB in human FRT-Jurkat cells expressing GFP assessed as reduction of TNF expression at 10 uM after 24 hrs by flow cytometry relative to control
# Assay type: cell-based
# maps each entry to its inhibition

| Molecule | inhibition, % |
| --- | --- |
| Cc1ccccc1Nc1ccc2c(c1)C(=O)N(C1CCC(=O)NC1=O)C2=O (centres undefined) | 2 |
| CCc1ccc(Nc2ccc3c(c2)C(=O)N(C2CCC(=O)NC2=O)C3=O)cc1 (centres undefined) | 5 |
| CCCc1ccc(Nc2ccc3c(c2)C(=O)N(C2CCC(=O)NC2=O)C3=O)cc1 (centres undefined) | 10 |
| CC(C)(C)c1ccc(Nc2ccc3c(c2)C(=O)N(C2CCC(=O)NC2=O)C3=O)cc1 (centres undefined) | 17 |
| O=C1CCC(N2C(=O)c3ccc(Nc4ccccn4)cc3C2=O)C(=O)N1 (centres undefined) | 9 |
| CCCCCc1ccc(Nc2ccc3c(c2)C(=O)N(C2CCC(=O)NC2=O)C3=O)cc1 (centres undefined) | 12 |
| CC(=O)c1ccc(Nc2ccc3c(c2)C(=O)N(C2CCC(=O)NC2=O)C3=O)cc1 (centres undefined) | -2 |
| CCOC(=O)c1ccc(Nc2ccc3c(c2)C(=O)N(C2CCC(=O)NC2=O)C3=O)cc1 (centres undefined) | 5 |
| O=C1CCC(N2C(=O)c3cccc(Nc4ccccc4)c3C2=O)C(=O)N1 (centres undefined) | 4 |
| O=C1CCC(N2C(=O)c3ccc(Nc4ccccc4)cc3C2=O)C(=O)N1 (centres undefined) | 6 |
| CCCc1ccc(Nc2cccc3c2C(=O)N(C2CCC(=O)NC2=O)C3=O)cc1 (centres undefined) | 23 |
| Cc1ccc(Nc2cccc3c2C(=O)N(C2CCC(=O)NC2=O)C3=O)cc1 (centres undefined) | 9 |
| CC(C)c1ccc(Nc2cccc3c2C(=O)N(C2CCC(=O)NC2=O)C3=O)cc1 (centres undefined) | 19 |
| Cc1ccccc1Nc1cccc2c1C(=O)N(C1CCC(=O)NC1=O)C2=O (centres undefined) | 7 |
| CC(C)(C)c1ccc(Nc2cccc3c2C(=O)N(C2CCC(=O)NC2=O)C3=O)cc1 (centres undefined) | 36 |
| Cc1ccc(Nc2ccc3c(c2)C(=O)N(C2CCC(=O)NC2=O)C3=O)cc1 (centres undefined) | 5 |
| CCCCCc1ccc(Nc2cccc3c2C(=O)N(C2CCC(=O)NC2=O)C3=O)cc1 (centres undefined) | 23 |
| O=C1CCC(N2C(=O)c3ccccc3C2=O)C(=O)N1 (racemic) | 2 |
| O=C1CCC(N2C(=O)c3cccc(Nc4ccccn4)c3C2=O)C(=O)N1 (centres undefined) | 1 |

----------
# Target Under Test: Nuclear factor NF-kappa-B complex (Homo sapiens) (UniProt Q00653+P19838+Q04206)
# Assay Procedure: Inhibition of NFkappaB in human FRT-Jurkat cells expressing GFP assessed as reduction of TNF expression at 10 uM after 24 hrs by flow cytometry relative to control
# Type: cell-based
# maps each entry to its inhibition

| Molecule | Endpoint Unit | inhibition |
| --- | --- | --- |
| CCOC(=O)c1ccc(Nc2cccc3c2C(=O)N(C2CCC(=O)NC2=O)C3=O)cc1 (stereo not given) | % | 10 |
| CC(C)c1ccc(Nc2ccc3c(c2)C(=O)N(C2CCC(=O)NC2=O)C3=O)cc1 (stereo not given) | % | 11 |
| Nc1cccc2c1CN(C1CCC(=O)NC1=O)C2=O (stereo not given) | % | 4 |
| O=C1CCC(N2C(=O)c3cccc(Nc4ccc(O)cc4)c3C2=O)C(=O)N1 (stereo not given) | % | 4 |
| CC(=O)c1ccc(Nc2cccc3c2C(=O)N(C2CCC(=O)NC2=O)C3=O)cc1 (stereo not given) | % | 2 |
| O=C1CCC(N2C(=O)c3ccc(Nc4ccc(O)cc4)cc3C2=O)C(=O)N1 (stereo not given) | % | 4 |
| COc1ccc(Nc2cccc3c2C(=O)N(C2CCC(=O)NC2=O)C3=O)cc1 (stereo not given) | % | 13 |
| CN(c1ccccc1)c1ccc2c(c1)C(=O)N(C1CCC(=O)NC1=O)C2=O (stereo not given) | % | -2 |
| COc1ccc(Nc2ccc3c(c2)C(=O)N(C2CCC(=O)NC2=O)C3=O)cc1 (stereo not given) | % | 29 |
| CCc1ccc(Nc2cccc3c2C(=O)N(C2CCC(=O)NC2=O)C3=O)cc1 (stereo not given) | % | 17 |
